The measurements presented in this section are drawn from patent US10364263B2.

The compounds listed here are annotated with their half-life.
assay: physchem; conditions: buffer, pH 7.5, t1/2 (h) Diastereoisomer B, phosphate buffered saline, 10 mM phosphate buffer pH 7.5, 37° C.; Diastereoisomer B
Please respond with the number in min and leave the unit unwritten.

Previously resolved entries follow.
COC(=O)CCNC(=O)[C@@H]1OP(=O)(N[C@@H](C)C(=O)OC)OCC1(C)C (stereo partly drawn)	2400
COC(=O)CCNC(=O)[C@@H]1OP(=O)(N[C@H]2CN[C@@H](C(=O)OC)C2)OCC1(C)C (stereo partly drawn)	216

# next compound below
Documented half-life of COC(=O)CCNC(=O)[C@@H]1OP(=O)(NCCN2CCCC2)OCC1(C)C (stereo partly drawn) : 924

---

The compounds listed here are annotated with their half-life at 5 µM.
experiment: Stability in mouse hepatocytes; type: in vitro ADME; settings: t1/2, Mouse Hepatocytes, Diastereoisomer A

Previously resolved entries follow.
COC(=O)CCNC(=O)[C@@H]1OP(=O)(OCOC(=O)c2ccccc2)OCC1(C)C (stereo partly shown)	< 15 min
COC(=O)CCNC(=O)[C@@H]1OP(=O)(OCCSC(=O)C(C)(C)C)OCC1(C)C (stereo partly shown)	< 15 min

Documented half-life at 5 µM of COC(=O)CCNC(=O)[C@@H]1OP(=O)(OCOC(=O)c2ccc(CN3CCCC3)cc2)OCC1(C)C (stereo partly shown) : < 15 min

Documented half-life at 5 µM of COC(=O)CCNC(=O)[C@@H]1OP(=O)(N[C@@H](Cc2ccc(OC(C)(C)C)cc2)C(=O)OC(C)(C)C)OCC1(C)C (stereo partly shown) : < 15 min

Documented half-life at 5 µM of COC(=O)CCNC(=O)[C@@H]1OP(=O)(N[C@H](C(=O)OC(C)(C)C)C2CCCCC2)OCC1(C)C (stereo partly shown) : < 15 min

Documented half-life at 5 µM of COC(=O)CCNC(=O)[C@@H]1OP(=O)(N[C@@H](C)C(=O)OCc2cc(C)cc(C)c2)OCC1(C)C (stereo partly shown) : < 15 min

Documented half-life at 5 µM of COC(=O)CCNC(=O)[C@@H]1OP(=O)(N[C@@H](Cc2ccccc2)C(=O)OCc2ccccc2)OCC1(C)C (stereo partly shown) : < 15 min

Documented half-life at 5 µM of COC(=O)CCNC(=O)[C@@H]1OP(=O)(N[C@@H](C)C(=O)OCc2cccnc2)OCC1(C)C (stereo partly shown) : < 15 min

Documented half-life at 5 µM of CC1(C)COP(=O)(O)O[C@H]1C(=O)NCCC(=O)O : 15 min

Documented half-life at 5 µM of COC(=O)CCNC(=O)[C@@H]1O[P@](=O)(OCOC(=O)NCCOC(=O)[C@@H](NC(=O)OCc2ccccc2)C(C)C)OCC1(C)C (single isomer, unassigned) : < 15 min

Documented half-life at 5 µM of COC(=O)[C@H](C)NP1(=O)OCC(C)(C)[C@H](C(=O)NCCC(=O)OCc2ccncc2)O1 (stereo partly shown) : < 15 min

Documented half-life at 5 µM of COC(=O)CCNC(=O)[C@@H]1OP(=O)(OCOC(=O)OC(C)C)OCC1(C)C (stereo partly shown) : < 15 min

Documented half-life at 5 µM of CC(C)(C)C(=O)OCO[P@@]1(=O)OCC(C)(C)[C@H](C(=O)NCCC(=O)OCCS(C)(=O)=O)O1 (single isomer, unassigned) : < 15 min
